TARGET_OR_TEST_SYSTEM: T1, biotin-labeled human ADM (human, not fully specified; biotin label (named human ADM-C-biotin in Example 1.4; position of the biotin not stated for the other lots))
T1 construct: Synthetic peptide; also called human ADM-C-biotin; hADM-Biotin
T1 peptide: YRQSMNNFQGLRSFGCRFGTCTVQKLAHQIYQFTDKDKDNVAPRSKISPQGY
ASSAY_METHOD_TEXT: BLI (Octet RED96e), as in Example 3
Method: The affinity of antibodies 2004hz00, 2004hz97, and 2004hz99 for biotin-labeled human and mouse ADM (human ADM Cat. No. 894757, mouse ADM Cat. No. 894758, synthesized by GLBiochem) was determined by adopting Octet RED96e (Fortebio). […] The equilibrium dissociation constants (KD) of the antibodies were calculated by measuring the association rates (Kon) and the dissociation rates (Koff) of the antigen-antibody in a 1:1 binding manner by adopting the Data Analysis 12.0 software from Fortebio. […]
Mark criterion met for reported koff of 0.0002 s⁻¹ or greater; mark criterion not met for anything smaller.

| BINDER | LABEL_CLASS |
| --- | --- |
| Ab2004.Am40 (IgG1 antibody) (antibody, V domains shown, Expressed in CHO cells, human IgG1/kappa) VH: QVQLVQSGAEVKKPGASVKVSCKASGYTFTQYGIAWVRQAPGQGLEWMGWISAYQGNTNYAQKLQGRVTMTRDTSTSTAYMELRSLRSDDTAVYYCAREGRWGGSFNIWGQGTMVTVSS VL: DIQMTQSPSSLSASVGDRVTITCRASQGISSYLAWYQQKPGKAPKLLIYDASNLETGVPSRFSGSGSGTDFTFTISSLQPEDIATYYCQQYDDLPLSFGGGTKVEIKR | criterion not met |
| Ab2004.Am33 (IgG1 antibody) (antibody, V domains shown, Expressed in CHO cells, human IgG1/kappa) VH: QVQLVQSGAEVKKPGASVKVSCKASGYTFTSYGISWVRQAPGQGLEWMGWISPYSGNTNYAQKLQGRVTMTRDTSTSTAYMELRSLRSDDTAVYYCAREGRWGGSFNIWGQGTMVTVSS VL: DIQMTQSPSSLSASVGDRVTITCRASEGISEYLAWYQQKPGKAPKLLIYDASNLETGVPSRFSGSGSGTDFTFTISSLQPEDIATYYCQQYDNLPLTFGGGTKVEIKR | criterion met |
| Ab2004.Am37 (IgG1 antibody) (antibody, V domains shown, Expressed in CHO cells, human IgG1/kappa) VH: QVQLVQSGAEVKKPGASVKVSCKASGYTFTSYGISWVRQAPGQGLEWMGWISPYTGKTNYAQKLQGRVTMTRDTSTSTAYMELRSLRSDDTAVYYCAREGRWGGSFNIWGQGTMVTVSS VL: DIQMTQSPSSLSASVGDRVTITCRASQGISSYLAWYQQKPGKAPKLLIYDVSILDAGVPSRFSGSGSGTDFTFTISSLQPEDIATYYCQQYDNLPLTFGGGTKVEIKR | criterion not met |
| Ab2004.Am34 (IgG1 antibody) (antibody, V domains shown, Expressed in CHO cells, human IgG1/kappa) VH: QVQLVQSGAEVKKPGASVKVSCKASGYTFTHYGIAWVRQAPGQGLEWMGWISAYQGNTNYAQKLQGRVTMTRDTSTSTAYMELRSLRSDDTAVYYCAREGRWGGSFNIWGQGTMVTVSS VL: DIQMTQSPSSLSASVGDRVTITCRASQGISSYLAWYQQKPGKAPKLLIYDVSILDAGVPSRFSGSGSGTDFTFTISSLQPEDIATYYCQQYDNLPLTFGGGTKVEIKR | criterion not met |
| fully human antibody Ab2004.Am01 (expressed antibody) (antibody, V domains shown, also called parent antibody Ab2004.Am01) VH: QVQLVQSGAEVKKPGASVKVSCKASGYTFTSYGISWVRQAPGQGLEWMGWISAYQGNTNYAQKLQGRVTMTRDTSTSTAYMELRSLRSDDTAVYYCAREGRWGGSFNIWGQGTMVTVSS VL: DIQMTQSPSSLSASVGDRVTITCRASQGISSYLAWYQQKPGKAPKLLIYDASNLETGVPSRFSGSGSGTDFTFTISSLQPEDIATYYCQQYDNLPLTFGGGTKVEIK | criterion met |
| Ab2004.Am35 (IgG1 antibody) (antibody, V domains shown, Expressed in CHO cells, human IgG1/kappa) VH: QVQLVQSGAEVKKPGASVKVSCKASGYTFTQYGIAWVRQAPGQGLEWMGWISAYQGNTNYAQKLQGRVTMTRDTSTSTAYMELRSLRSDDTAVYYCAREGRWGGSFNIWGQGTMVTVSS VL: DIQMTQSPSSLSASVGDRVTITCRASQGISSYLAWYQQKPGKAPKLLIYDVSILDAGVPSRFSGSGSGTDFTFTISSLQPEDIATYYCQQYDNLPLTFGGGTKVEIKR | criterion not met |
| Ab2004.Am39 (IgG1 antibody) (antibody, V domains shown, Expressed in CHO cells, human IgG1/kappa) VH: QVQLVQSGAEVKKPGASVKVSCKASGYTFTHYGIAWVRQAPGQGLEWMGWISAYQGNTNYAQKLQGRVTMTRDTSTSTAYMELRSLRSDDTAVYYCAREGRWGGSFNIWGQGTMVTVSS VL: DIQMTQSPSSLSASVGDRVTITCRASQGISSYLAWYQQKPGKAPKLLIYDASNLETGVPSRFSGSGSGTDFTFTISSLQPEDIATYYCQQYDDLDLTFGGGTKVEIKR | criterion not met |
| Enibarcimab (antibody, V domains shown) VH: QVQLVQSGAEVKKPGSSVKVSCKASGYTFSRYWIEWVRQAPGQGLEWIGEILPGSGSTNYNQKFQGRVTITADTSTSTAYMELSSLRSEDTAVYYCTEGYEYDGFDYWGQGTTVTVSS VL: DVVLTQSPLSLPVTLGQPASISCRSSQSIVYSNGNTYLEWYLQRPGQSPRLLIYRVSNRFSGVPDRFSGSGSGTDFTLKISRVEAEDVGVYYCFQGSHIPYTFGGGTKLEIKR | criterion met |
| Ab2004.Am36 (IgG1 antibody) (antibody, V domains shown, Expressed in CHO cells, human IgG1/kappa) VH: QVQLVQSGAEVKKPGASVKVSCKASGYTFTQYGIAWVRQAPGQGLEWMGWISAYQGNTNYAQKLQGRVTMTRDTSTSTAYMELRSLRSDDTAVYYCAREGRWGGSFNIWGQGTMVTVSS VL: DIQMTQSPSSLSASVGDRVTITCRASQGISSYLAWYQQKPGKAPKLLIYDASNVDTGVPSRFSGSGSGTDFTFTISSLQPEDIATYYCQQYDNLPLTFGGGTKVEIKR | criterion not met |
| Ab2004.Am32 (IgG1 antibody) (antibody, V domains shown, Expressed in CHO cells, human IgG1/kappa) VH: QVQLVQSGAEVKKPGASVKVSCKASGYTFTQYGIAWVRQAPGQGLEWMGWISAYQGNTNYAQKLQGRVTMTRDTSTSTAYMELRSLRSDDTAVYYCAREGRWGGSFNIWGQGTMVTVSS VL: DIQMTQSPSSLSASVGDRVTITCRAAEGIGSYLAWYQQKPGKAPKLLIYDASNLETGVPSRFSGSGSGTDFTFTISSLQPEDIATYYCQQYDNLPLTFGGGTKVEIKR | criterion not met |
| Ab2004.Am38 (IgG1 antibody) (antibody, V domains shown, Expressed in CHO cells, human IgG1/kappa) VH: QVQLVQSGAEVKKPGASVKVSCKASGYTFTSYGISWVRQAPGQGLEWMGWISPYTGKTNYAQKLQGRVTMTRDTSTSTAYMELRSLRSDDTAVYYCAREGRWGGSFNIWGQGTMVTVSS VL: DIQMTQSPSSLSASVGDRVTITCRASQGISSYLAWYQQKPGKAPKLLIYDTSDLDTGVPSRFSGSGSGTDFTFTISSLQPEDIATYYCQQYDNLPLTFGGGTKVEIKR | criterion not met |
